Data provenance: the kinase profiling compilation of Christmann-Franck et al. (2016)

- assay target: MAP3K6 (human) (UniProt O95382)
- Sequence (O95382 whole entry, looked up): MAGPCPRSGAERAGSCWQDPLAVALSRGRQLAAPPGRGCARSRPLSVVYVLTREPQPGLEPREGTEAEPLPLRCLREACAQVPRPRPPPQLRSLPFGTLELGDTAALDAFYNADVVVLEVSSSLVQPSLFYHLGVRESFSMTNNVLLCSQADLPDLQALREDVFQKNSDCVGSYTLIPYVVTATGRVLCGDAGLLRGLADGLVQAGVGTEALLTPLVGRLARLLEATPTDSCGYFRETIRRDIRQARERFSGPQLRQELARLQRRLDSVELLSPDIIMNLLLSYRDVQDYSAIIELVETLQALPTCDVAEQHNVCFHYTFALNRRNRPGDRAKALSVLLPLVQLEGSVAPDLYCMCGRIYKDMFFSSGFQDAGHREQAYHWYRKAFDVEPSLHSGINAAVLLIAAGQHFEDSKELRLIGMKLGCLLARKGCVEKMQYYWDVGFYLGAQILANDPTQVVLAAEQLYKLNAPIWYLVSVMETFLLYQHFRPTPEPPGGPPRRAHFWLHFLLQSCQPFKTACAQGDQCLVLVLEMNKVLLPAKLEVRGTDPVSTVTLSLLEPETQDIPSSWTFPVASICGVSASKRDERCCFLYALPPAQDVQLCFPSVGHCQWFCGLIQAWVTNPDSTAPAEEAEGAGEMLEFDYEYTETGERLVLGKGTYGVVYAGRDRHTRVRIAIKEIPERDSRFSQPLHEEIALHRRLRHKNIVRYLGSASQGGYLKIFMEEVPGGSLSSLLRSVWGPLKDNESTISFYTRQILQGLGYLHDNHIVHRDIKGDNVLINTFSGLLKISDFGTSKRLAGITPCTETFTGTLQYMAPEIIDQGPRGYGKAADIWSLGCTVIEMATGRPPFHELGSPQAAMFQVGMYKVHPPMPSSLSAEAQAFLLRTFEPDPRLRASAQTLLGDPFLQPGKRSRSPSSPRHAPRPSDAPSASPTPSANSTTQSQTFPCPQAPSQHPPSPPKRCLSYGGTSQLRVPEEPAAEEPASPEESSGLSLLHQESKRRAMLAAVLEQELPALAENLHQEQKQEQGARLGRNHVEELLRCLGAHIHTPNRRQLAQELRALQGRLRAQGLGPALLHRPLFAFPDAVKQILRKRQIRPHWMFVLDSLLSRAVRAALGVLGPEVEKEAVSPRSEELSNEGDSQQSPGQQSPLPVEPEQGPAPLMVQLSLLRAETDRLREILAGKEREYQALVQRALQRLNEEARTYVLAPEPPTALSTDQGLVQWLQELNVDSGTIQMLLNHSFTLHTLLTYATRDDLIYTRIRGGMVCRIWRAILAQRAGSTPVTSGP
- test protocol: KINOMEscan competition binding
- details: compound 10.0 µM
Item-by-item account of kinase still bound, per cent of control
value type: kinase still bound, per cent of control

In [3]: df
Out[3]:
                               input_smiles                               value_type  experimental_result
0  COc1cc2ncnc(-n3nc(-c4ccccn4)nc3N)c2cc1OC  kinase still bound, per cent of control                  64%
1  O=C1NC(=O)/C(=C/c2ccc3nccc(-c4ccncc4)c3c2)S1  kinase still bound, per cent of control                  96%
2  CCN1CCN(C(=O)Cc2ccc(Nc3ncc(F)c(Nc4ccc(C(=O)Nc5ccccc5Cl)cc4)n3)cc2)CC1  kinase still bound, per cent of control                  86%
3  COc1cc(C(=O)N2CCC(N3CCN(C)CC3)CC2)ccc1Nc1ncc2c(n1)N(C)c1ccccc1C(=O)N2C  kinase still bound, per cent of control                 100%
4  CCN(CC)CCCCNc1ncc2c(n1)N(C)C(=O)N(c1c(Cl)c(OC)cc(OC)c1Cl)C2  kinase still bound, per cent of control                 100%
5  COc1ccc(N(C(=O)Oc2c(C)cccc2C)c2ccnc(Nc3ccc(N4CCN(C)CC4)cc3)n2)c(OC)c1  kinase still bound, per cent of control                  93%
6  COc1cc2ncn(-c3cc(OCc4ccccc4C(F)(F)F)c(C(N)=O)s3)c2cc1OC  kinase still bound, per cent of control                  84%
7  O=C(Nc1cccc(Nc2ncc(Br)c(NCCc3cnc[nH]3)n2)c1)N1CCCC1  kinase still bound, per cent of control                  49%
8  CNC(=O)c1cc(Oc2ccc(NC(=O)Nc3ccc(Cl)c(C(F)(F)F)c3)cc2)ccn1  kinase still bound, per cent of control                 100%

---

Item-by-item account of kinase still bound, per cent of control
- assay target: UniProt:Q8NEV4
- Sequence (Q8NEV4 whole entry, looked up): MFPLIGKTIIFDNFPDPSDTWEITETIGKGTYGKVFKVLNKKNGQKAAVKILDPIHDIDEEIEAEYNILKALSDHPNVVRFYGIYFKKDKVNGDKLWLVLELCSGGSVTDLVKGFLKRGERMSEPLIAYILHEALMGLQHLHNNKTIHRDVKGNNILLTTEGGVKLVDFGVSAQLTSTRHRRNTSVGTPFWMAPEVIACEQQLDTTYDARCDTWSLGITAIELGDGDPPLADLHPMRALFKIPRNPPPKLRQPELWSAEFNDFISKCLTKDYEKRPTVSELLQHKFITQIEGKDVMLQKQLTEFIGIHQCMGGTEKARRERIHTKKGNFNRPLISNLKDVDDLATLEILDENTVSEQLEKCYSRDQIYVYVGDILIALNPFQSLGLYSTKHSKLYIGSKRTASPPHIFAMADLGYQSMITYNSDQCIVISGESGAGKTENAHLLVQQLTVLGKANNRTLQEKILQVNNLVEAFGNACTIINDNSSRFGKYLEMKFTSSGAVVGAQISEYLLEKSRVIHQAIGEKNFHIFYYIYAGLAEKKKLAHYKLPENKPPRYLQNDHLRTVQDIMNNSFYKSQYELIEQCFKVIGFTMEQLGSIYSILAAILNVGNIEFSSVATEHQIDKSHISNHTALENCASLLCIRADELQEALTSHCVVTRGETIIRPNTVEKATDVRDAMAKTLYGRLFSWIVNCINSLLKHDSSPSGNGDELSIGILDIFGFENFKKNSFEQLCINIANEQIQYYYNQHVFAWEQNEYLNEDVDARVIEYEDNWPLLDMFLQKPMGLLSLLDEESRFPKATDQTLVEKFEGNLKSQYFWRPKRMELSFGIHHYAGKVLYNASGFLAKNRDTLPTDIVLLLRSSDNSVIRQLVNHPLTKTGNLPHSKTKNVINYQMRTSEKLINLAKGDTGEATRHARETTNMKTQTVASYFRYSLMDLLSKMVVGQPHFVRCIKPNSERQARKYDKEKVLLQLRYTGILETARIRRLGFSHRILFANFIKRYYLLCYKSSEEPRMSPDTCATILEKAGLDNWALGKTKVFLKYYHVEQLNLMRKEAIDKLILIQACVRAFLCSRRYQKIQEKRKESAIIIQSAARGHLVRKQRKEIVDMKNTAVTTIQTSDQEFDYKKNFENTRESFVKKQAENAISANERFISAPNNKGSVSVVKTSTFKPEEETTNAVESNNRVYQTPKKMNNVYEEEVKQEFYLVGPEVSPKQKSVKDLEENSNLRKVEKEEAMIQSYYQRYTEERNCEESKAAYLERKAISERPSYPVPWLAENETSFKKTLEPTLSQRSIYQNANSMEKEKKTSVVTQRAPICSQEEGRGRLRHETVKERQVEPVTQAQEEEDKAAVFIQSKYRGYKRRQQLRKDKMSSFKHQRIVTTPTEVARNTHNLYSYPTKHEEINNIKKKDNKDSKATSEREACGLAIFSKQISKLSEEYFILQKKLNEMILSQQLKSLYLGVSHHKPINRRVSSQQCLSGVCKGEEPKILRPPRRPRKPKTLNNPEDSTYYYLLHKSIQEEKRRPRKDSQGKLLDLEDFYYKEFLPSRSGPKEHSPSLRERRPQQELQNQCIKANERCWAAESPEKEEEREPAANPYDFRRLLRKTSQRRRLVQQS
- test protocol: KINOMEscan competition binding
- details: compound 10.0 µM
value type: kinase still bound, per cent of control (%)

>>> print(df.to_string())
                               input_smiles                               value_type  experimental_result
0  CS(=O)(=O)N1CCN(Cc2cc3nc(-c4cccc5[nH]ncc45)nc(N4CCOCC4)c3s2)CC1  kinase still bound, per cent of control                  100
1  COc1ccc(N(C(=O)Oc2c(C)cccc2C)c2ccnc(Nc3ccc(N4CCN(C)CC4)cc3)n2)c(OC)c1  kinase still bound, per cent of control                   69
2  CCN1CCN(C(=O)Cc2ccc(Nc3ncc(F)c(Nc4ccc(C(=O)Nc5ccccc5Cl)cc4)n3)cc2)CC1  kinase still bound, per cent of control                  100

---

- assay target: STK16 (human) (UniProt O75716)
- Sequence (O75716 whole entry, looked up): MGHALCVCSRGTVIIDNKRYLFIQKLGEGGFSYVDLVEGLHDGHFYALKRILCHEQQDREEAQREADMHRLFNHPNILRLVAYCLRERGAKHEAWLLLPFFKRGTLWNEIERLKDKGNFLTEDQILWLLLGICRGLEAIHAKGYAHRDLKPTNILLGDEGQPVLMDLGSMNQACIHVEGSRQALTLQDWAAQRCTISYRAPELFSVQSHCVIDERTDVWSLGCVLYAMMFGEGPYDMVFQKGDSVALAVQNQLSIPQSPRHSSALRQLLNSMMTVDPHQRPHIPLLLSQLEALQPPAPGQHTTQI
- test protocol: KINOMEscan competition binding
- details: compound 10.0 µM
value type: kinase still bound, per cent of control (%)

>>> df
                                input_smiles                    assay_target                               value_type  unit_of_measurement  experimental_result
 0  NC(=O)Nc1cc(-c2cccc(F)c2)sc1C(=O)N[C@@H]1CCCNC1  STK16 (human) (UniProt O75716)  kinase still bound, per cent of control                    %                   21
 1  COc1cc2ncnc(-n3nc(-c4ccccn4)nc3N)c2cc1OC  STK16 (human) (UniProt O75716)  kinase still bound, per cent of control                    %                  2.8
 2  O=C(Nc1cccc(Nc2ncc(Br)c(NCCc3cnc[nH]3)n2)c1)N1CCCC1  STK16 (human) (UniProt O75716)  kinase still bound, per cent of control                    %                 0.55
 3  O=c1cc(N2CCOCC2)oc2c(-c3cccc4c3sc3ccccc34)cccc12  STK16 (human) (UniProt O75716)  kinase still bound, per cent of control                    %                   98
 4  CCN(CC)CCCCNc1ncc2c(n1)N(C)C(=O)N(c1c(Cl)c(OC)cc(OC)c1Cl)C2  STK16 (human) (UniProt O75716)  kinase still bound, per cent of control                    %                  100
 5  CNC(=O)c1cc(Oc2ccc(NC(=O)Nc3ccc(Cl)c(C(F)(F)F)c3)cc2)ccn1  STK16 (human) (UniProt O75716)  kinase still bound, per cent of control                    %                  100
 6  C[C@@H](Oc1cc(-c2cnn(C3CCNCC3)c2)cnc1N)c1c(Cl)ccc(F)c1Cl  STK16 (human) (UniProt O75716)  kinase still bound, per cent of control                    %                   63
 7  C=CC(=O)Nc1cc(-n2c(=O)ccc3cnc4ccc(-c5cn[nH]c5)cc4c32)ccc1C  STK16 (human) (UniProt O75716)  kinase still bound, per cent of control                    %                   52
 8  CCN(CC)CCCCNc1ncc2cc(-c3cc(OC)cc(OC)c3)c(NC(=O)NC(C)(C)C)nc2n1  STK16 (human) (UniProt O75716)  kinase still bound, per cent of control                    %                  100
 9  CCN1CCN(C(=O)Cc2ccc(Nc3ncc(F)c(Nc4ccc(C(=O)Nc5ccccc5Cl)cc4)n3)cc2)CC1  STK16 (human) (UniProt O75716)  kinase still bound, per cent of control                    %                  1.6
10  COc1ccc(N(C(=O)Oc2c(C)cccc2C)c2ccnc(Nc3ccc(N4CCN(C)CC4)cc3)n2)c(OC)c1  STK16 (human) (UniProt O75716)  kinase still bound, per cent of control                    %                   15
11  C=CC(=O)Nc1ccc(CN(C(=O)Nc2c(Cl)c(OC)cc(OC)c2Cl)c2cc(Nc3ccc(N4CCN(C)CC4)cc3)ncn2)cc1  STK16 (human) (UniProt O75716)  kinase still bound, per cent of control                    %                  100
12  Cc1n[nH]c2ccc(-c3cncc(OC[C@@H](N)Cc4c[nH]c5ccccc45)c3)cc12  STK16 (human) (UniProt O75716)  kinase still bound, per cent of control                    %                  100
13  CN(C)C/C=C/C(=O)Nc1ccc(C(=O)Nc2cccc(Nc3nccc(-c4cccnc4)n3)c2)cc1  STK16 (human) (UniProt O75716)  kinase still bound, per cent of control                    %                  1.2
14  COc1cc(N2CCN(C)CC2)ccc1Nc1ncc2c(n1)N(C)c1ccccc1C(=O)N2C  STK16 (human) (UniProt O75716)  kinase still bound, per cent of control                    %                  100
15  COc1cc2ncn(-c3cc(OCc4ccccc4C(F)(F)F)c(C(N)=O)s3)c2cc1OC  STK16 (human) (UniProt O75716)  kinase still bound, per cent of control                    %                   49
16  CNC(=O)c1ccc(Nc2cc(Nc3ccccc3S(=O)(=O)C(C)C)c3cc[nH]c3n2)nc1  STK16 (human) (UniProt O75716)  kinase still bound, per cent of control                    %                  2.8
17  N#CCNC(=O)c1ccc(-c2ccnc(Nc3ccc(N4CCOCC4)cc3)n2)cc1  STK16 (human) (UniProt O75716)  kinase still bound, per cent of control                    %                  6.2
18  CS(=O)(=O)N1CCN(Cc2cc3nc(-c4cccc5[nH]ncc45)nc(N4CCOCC4)c3s2)CC1  STK16 (human) (UniProt O75716)  kinase still bound, per cent of control                    %                  100
19  O=C1NC(=O)/C(=C/c2ccc3nccc(-c4ccncc4)c3c2)S1  STK16 (human) (UniProt O75716)  kinase still bound, per cent of control                    %                  4.9
20  COc1cc(C(=O)N2CCC(N3CCN(C)CC3)CC2)ccc1Nc1ncc2c(n1)N(C)c1ccccc1C(=O)N2C  STK16 (human) (UniProt O75716)  kinase still bound, per cent of control                    %                   62
